Source of measurements: the RNAGym collection of RNA variant scans (doi:10.7554/elife.90254)

B1: LINE1-mini (parent)
chain: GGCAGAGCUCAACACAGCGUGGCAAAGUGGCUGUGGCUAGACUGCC

- Variants of: B1
- method_summary: self-cleavage, relative activity (ratio to wild type); higher = more cleavage; in vitro, sequencing; the parent is a self-cleaving ribozyme
Documented self-cleavage across a set of variants
measured_quantity: self-cleavage

In [3]: df
Out[3]:
     mutation  reported
 0  C10U U34G      0.32
 1   G2U C45G      0.23
 2   U9G A25U      0.14
 3  C13G A14U      0.09
 4   A4U U38G      0.03
 5   U9G G27C      0.08
 6  A26U G44C      0.64
 7  A16G G27C      0.17
 8   A6G G27U      0.08
 9    A6U G7A      0.26
10   G2A C10A      0.07
11   C8G C23G      0.08
12    C3U C8A      0.38
13  G35U G40U      0.12
14  U34A G36A      0.09
15   G2A G21U      0.89
16  C10G C13A      0.03
17  A12G C37G      0.02
18  C18U G44A      0.22
19  G35U G40A      0.09
20  A25C A39C      0.08
21  A11U C13G      0.03
22  A25G G29U      1.14
23  C18A A24G      0.56
24  C18G U43G      0.13
25   G5U G40A      0.06
26  G36A C45A      0.14
27  G21U U38C       0.9
28   G5U G33A      0.04
